system: imidazoline preferring receptor (IR); assay: Displacement of 3H-idazoxan (4 nM) in the presence of (-)-adrenaline (IR affinity); format: binding, rat; conditions: selectivity ratio for IR/alpha2 from Ki values
The entries below are paired with their reported Selectivity IR/α2.
No unit in the answer, only the number.

Before answering, review these 5 worked examples.
Cl.Cn1ccnc1-c1cc2ccccc2o1; 4140
Brc1ccc2oc(-c3ncc[nH]3)cc2c1.Cl; 584
CCn1ccnc1-c1cc2ccc(OC)cc2o1.Cl; 580
COc1ccc2cc(-c3ncc[nH]3)oc2c1.Cl; 372
COC1(C2=NCCN2)COc2ccccc2O1 (stereo not shown) [RX 821002, reference compound]; 0.00002

Switching to the query record.
Please fill in: Selectivity IR/α2 reported for COc1ccc2oc(-c3ncc[nH]3)cc2c1.Cl = 605
